I'd be grateful if you could share measured selectivity ratio for these entries.
- assay details: Selectivity factor, ratio of IC50 for cytotoxicity against human MRC5 cells to IC50 for antiproliferative activity against human A549 cells
- Format: toxicity, cell-based
- measurement setup: MRC5 cells versus A549 cells, read-out: Ratio IC50
One number for each entry.

mol smiles	selectivity ratio
C=C(C)[C@@H]1CC[C@]2(C)CC[C@]3(C)[C@H](CC[C@@H]4[C@@]5(C)CC[C@H](OC(=O)CC[P+](c6ccc(C)cc6)(c6ccc(C)cc6)c6ccc(C)cc6)C(C)(C)[C@@H]5CC[C@]43C)[C@@H]12	6.34

Req: Give the reported selectivity ratio for this compound. C=C(C)[C@@H]1CC[C@]2(C)CC[C@]3(C)[C@H](CC[C@@H]4[C@@]5(C)CC[C@H](OC(=O)CCC[P+](c6ccccc6)(c6ccccc6)C6CCCCC6)C(C)(C)[C@@H]5CC[C@]43C)[C@@H]12
Resp: 6.35
